- methodDescription: Competitive inhibition of Leishmania spp. trypanothione reductase in presence of 75 to 400 uM TS2 by Dixon plot analysis
- Parameters: species or system Leishmania sp.
measurementName: Ki (nM)
Give the quantity in nM, number only.

Please report the recorded Ki for COc1cc(OCC=C(C)C)ccc1C(=O)/C=C/c1ccc([N+](=O)[O-])cc1 .
450

====

- Tested on: Leishmania donovani
- methodDescription: Antileishmanial activity against promastigote stage of Leishmania donovani MHOM/NP/02/BPK282/0c14 assessed as parasite growth inhibition after 72 hrs by Alamar blue assay
- Format: functional, organism-based
- testConditions: MHOM/NP/02/BPK282/0c14, 72 h
measurementName: pIC50
Quick note: pIC50 values are minus log10 of concentrations in mol/L.

sampleSmiles	pIC50
CC(C)=CCOc1ccc(C(=O)/C=C/c2ccncc2)c(O)c1	5.30

Please report the recorded pIC50 for C#CCOc1ccc(C(=O)/C=C/c2ccc(F)cc2)c(OCC#C)c1 .
4.90

Please report the recorded pIC50 for COc1cc(OCC=C(C)C)ccc1C(=O)/C=C/c1ccc(Br)cc1 .
4.80

Please report the recorded pIC50 for C#CCOc1ccc(C(=O)/C=C/c2cccnc2)c(OC)c1 .
5.02

Please report the recorded pIC50 for C#CCOc1ccc(C(=O)/C=C/c2ccc(Br)cc2)c(OC)c1 .
4.67

Please report the recorded pIC50 for C#CCOc1ccc(C(=O)/C=C/c2cccnc2)c(OCC#C)c1 .
5.40

Please report the recorded pIC50 for C#CCOc1ccc(C(=O)/C=C/c2ccc(Br)cc2)c(OCC#C)c1 .
4.82

Please report the recorded pIC50 for COc1cc(OCC=C(C)C)ccc1C(=O)/C=C/c1ccc([N+](=O)[O-])cc1 .
5.52

Please report the recorded pIC50 for COc1cc(OCC=C(C)C)ccc1C(=O)/C=C/c1ccncc1 .
4.98

Please report the recorded pIC50 for CC(C)=CCOc1ccc(C(=O)/C=C/c2cccnc2)c(O)c1 .
5.07

Please report the recorded pIC50 for COc1cc(OCC=C(C)C)ccc1C(=O)/C=C/c1ccccc1 .
4.82

====

# selectivity ratio annotations
- methodDescription: Selectivity index, ratio of CC50 for African green monkey Vero cells to IC50 for Leishmania donovani MHOM/NP/02/BPK282/0c14
- Assay type: toxicity
- testConditions: read-out: Ratio CC50/IC50
Hey, just send me the number, nothing else.

sampleSmiles	selectivity ratio
C#CCOc1ccc(C(=O)/C=C/c2ccc(Br)cc2)c(OC)c1	4.6
COc1cc(OCC=C(C)C)ccc1C(=O)/C=C/c1cc(OC)c(OC)c(OC)c1	3.6
COc1cc(OCC=C(C)C)ccc1C(=O)/C=C/c1ccc([N+](=O)[O-])cc1	200
COc1cc(OCC=C(C)C)ccc1C(=O)/C=C/c1ccc(Br)cc1	37.5
C#CCOc1ccc(C(=O)/C=C/c2cccnc2)c(O)c1	2.3

Note: attention shifts to another entry.
Please report the recorded selectivity ratio for C#CCOc1ccc(C(=O)/C=C/c2cccnc2)c(OC)c1 .
1.6

====

# IC50 annotations
- System: Leishmania donovani
- methodDescription: Antileishmanial activity against promastigote stage of Leishmania donovani MHOM/NP/02/BPK282/0c14 assessed as parasite growth inhibition after 72 hrs by Alamar blue assay
- Format: functional, organism-based
- testConditions: MHOM/NP/02/BPK282/0c14, 72 h
Give the quantity in µM, number only.

Below are worked cases with known answers.
sampleSmiles	IC50 / µM
C#CCOc1ccc(C(=O)/C=C/c2ccncc2)c(OCC#C)c1	7
C[C@@H]1[C@H](O)[C@@H](C)/C=C/C=C/C=C/C=C/C=C/C=C/C=C/[C@H](O[C@@H]2O[C@H](C)[C@@H](O)[C@H](N)[C@@H]2O)C[C@@H]2O[C@](O)(C[C@@H](O)C[C@@H](O)[C@H](O)CC[C@@H](O)C[C@@H](O)CC(=O)O[C@H]1C)C[C@H](O)[C@H]2C(=O)O	0.3
COc1cc(OCC=C(C)C)ccc1C(=O)/C=C/c1cccnc1	10.5
C#CCOc1ccc(C(=O)/C=C/c2cccnc2)c(O)c1	17.5
C#CCOc1ccc(C(=O)/C=C/c2ccncc2)c(OC)c1	4

Note: attention shifts to another entry.
Please report the recorded IC50 for COc1cc(OCC=C(C)C)ccc1C(=O)/C=C/c1cc(OC)c(OC)c(OC)c1 .
11
